molecular target: CyclinE1/CDK2 (Homo sapiens, UniProt P24864); construct: purchased Eurofins, discovery 14-475; assay: Fluorescence Polarization (FP) competitive binding assay, Cyclin E1/Cdk2; conditions: 10 nM Cyclin E1/Cdk2, 2 nM FAM probe; average of 2-3 independent experiments; read-out: Cyclin E FP IC50;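 also: readings taken after two-hour equilibration at room temperature in HEPES buffer with NaCl, DTT, NP-40 and BSA, IC50 fitted from eight-concentration serial dilution series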
*1 amine or outer side, *2 acyl side, *3 side chain or, on linkers, in order; H or OH if unused. Where a SMILES comes first, the peptide text is derived from it. Bridges are numbered along the chain shown (N, C = ends). [ ]: non-standard residue; d: D form. The star is where a group is joined. X105 = CN([C@@H](Cc1cc(Cl)ccc1-c1cnn(C2CCOC2)c1)C(=O)[*:2])[*:1]; X24 = CN([C@@H](Cc1cc(Cl)ccc1-c1cnn(C(C)(C)C)c1)C(=O)[*:2])[*:1]; X87 = CN([C@@H](Cc1cc(F)ccc1-c1ccc(N2CCOCC2)cc1)C(=O)[*:2])[*:1]; NMehhhLys(Me) = CN([C@@H](CCCCCCCN(C)[*:3])C(=O)[*:2])[*:1]; cBuCO(3,3-F2-1-CF3) = O=C(C1(C(F)(F)F)CC(F)(F)C1)*; Pro(trans-4-F) = O=C(O)[C@@H]1C[C@@H](F)CN1; Gly(cPr) = N[C@H](C(=O)O)C1CC1
Quantity measured: IC50 (nM)

# Compound, Value observed
measured = [
    ("CC(C)C[C@@H]1NC(=O)[C@@H](N(C)C(=O)[C@@H](NC(=O)[C@@H]2C[C@@H](F)CN2C(=O)C2(C(F)(F)F)CC(F)(F)C2)C2CC2)CCCCCCCN(C)C(=O)[C@H](Cc2cc(Cl)ccc2-c2cnn(C(C)(C)C)c2)N(C)C1=O [Example 187] ({cBuCO(3,3-F2-1-CF3)}-[Pro(trans-4-F)][Gly(cPr)][NMehhhLys(Me)]L[X24]; lactam 3-C)", 340),
    ("CC(C)C[C@@H]1NC(=O)[C@@H](N(C)C(=O)[C@@H](NC(=O)[C@@H]2C[C@@H](F)CN2C(=O)C2(C(F)(F)F)CC(F)(F)C2)C2CC2)CCCCCCCN(C)C(=O)[C@H](Cc2cc(Cl)ccc2-c2cnn(C3CCOC3)c2)N(C)C1=O (stereo partly drawn) [Example 113] ({cBuCO(3,3-F2-1-CF3)}-[Pro(trans-4-F)][Gly(cPr)][NMehhhLys(Me)]L[X105]; lactam 3-C)", 310),
    ("CC(C)C[C@@H]1NC(=O)[C@@H](N(C)C(=O)[C@@H](NC(=O)[C@@H]2C[C@@H](F)CN2C(=O)C2(C(F)(F)F)CC(F)(F)C2)C2CC2)CCCCCCCN(C)C(=O)[C@H](Cc2cc(F)ccc2-c2ccc(N3CCOCC3)cc2)N(C)C1=O [Example 337] ({cBuCO(3,3-F2-1-CF3)}-[Pro(trans-4-F)][Gly(cPr)][NMehhhLys(Me)]L[X87]; lactam 3-C)", 190),
]
